Hey, just so you know, these numbers are from patent US20260062422A1.

tested on: T47D cells; test: Cellular growth inhibition assay for T47D cells, CellTiter-Glo; format: cell-based, human; conditions: 72 hours treatment, CellTiter-Glo 2.0 cell viability
Exercise: state measured GI50 for each of the compounds provided.

Fill in: GI50 of "Cc1sc2c(c1C)C(c1ccc([C@@H]3C[C@H]3C3CC4(CCN(c5cnc(C(=O)N[C@H]6C(C)(C)[C@H](Oc7ccc(C#N)c(Cl)c7)C6(C)C)cn5)CC4)C3)cc1)=N[C@@H](Cc1ncco1)c1nnc(C)n1-2" is ___
> 3000 nM

Fill in: GI50 of Cc1sc2c(c1C)C(c1ccc(C3CC(CC4CCN(c5ncc(C(=O)N[C@H]6C(C)(C)[C@H](Oc7ccc(C#N)c(Cl)c7)C6(C)C)cn5)CC4)C3)cc1)=NC(C)c1nnc(C)n1-2 (some centres unmarked) [Compound I-508] is ___
500 to 1500 nM

====

test system: T-Rex 293 cell line SC3 cells lacking increased expression of androgen receptor protein; experiment: Cellular growth inhibition, T-Rex 293 SC3 cells without doxycycline, CellTiter-Glo; format: cell-based; conditions: 72 h, T-Rex 293 SC3 cells not exposed to doxycycline, CellTiter-Glo 2.0
measured_attribute: GI50

What is its GI50 for T-Rex 293 cell line SC3 cells lacking increased expression of androgen receptor protein? Entry: "Cc1sc2c(c1C)C(c1ccc(C[C@H]3CC[C@@]4(C3)CN(c3ncc(C(=O)N[C@H]5C(C)(C)[C@H](Oc6ccc(C#N)c(Cl)c6)C5(C)C)cn3)CCO4)cc1)=N[C@@H](Cc1ncco1)c1nnc(C)n1-2"
< 0.5 µM

What is its GI50 for T-Rex 293 cell line SC3 cells lacking increased expression of androgen receptor protein? Entry: "Cc1sc2c(c1C)C(c1ccc(OC3CC4(C3)CC3(CCN(c5ccc(C(=O)N[C@H]6C(C)(C)[C@H](Oc7ccc(C#N)c(Cl)c7)C6(C)C)cn5)CC3)C4)cc1)=N[C@@H](C)c1nnc(C)n1-2"
> 3 µM

====

tested on: T-Rex 293 cell line SC3 cells lacking increased expression of androgen receptor protein; assay: Cellular growth inhibition, T-Rex 293 SC3 cells without doxycycline, CellTiter-Glo; assay type: cell-based; conditions: 72 h, T-Rex 293 SC3 cells not exposed to doxycycline, CellTiter-Glo 2.0
measured_attribute: GI50

Fill in: GI50 of Cc1sc2c(c1C)C(c1ccc(N3CCN(C(=O)c4ncc(C(=O)N[C@H]5C(C)(C)[C@H](Oc6ccc(C#N)c(Cl)c6)C5(C)C)cn4)CC3)cc1)=N[C@@H](Cc1ncco1)c1nnc(C)n1-2 [Compound I-340] is ___
> 3 µM

Fill in: GI50 of Cc1sc2c(c1C)C(c1ccc(OCCC3CCN(c4ncc(C(=O)N[C@H]5C(C)(C)[C@H](Oc6ccc(C#N)c(Cl)c6)C5(C)C)cn4)CC3)cc1)=NC(Cc1ncco1)c1nnc(C)n1-2 (stereo partly drawn) [Compound I-167] is ___
0.5 to 1.5 µM

Fill in: GI50 of Cc1sc2c(c1C)C(c1ccc(OCCOC3CCN(c4ncc(C(=O)N[C@H]5C(C)(C)[C@H](Oc6ccc(C#N)c(Cl)c6)C5(C)C)cn4)CC3)cc1)=N[C@@H](CC(=O)NC1CC1)c1nnc(C)n1-2 [Compound I-67] is ___
< 0.5 µM

Fill in: GI50 of Cc1sc2c(c1C)C(c1ccc(-n3ccc(C4CCN(c5ncc(C(=O)N[C@H]6C(C)(C)[C@H](Oc7ccc(C#N)c(Cl)c7)C6(C)C)cn5)CC4)n3)cc1)=N[C@@H](Cc1ncco1)c1nnc(C)n1-2 [Compound I-441] is ___
0.5 to 1.5 µM

Fill in: GI50 of CCNC(=O)C[C@@H]1N=C(c2ccc(CCN(C)c3ncc(C(=O)N[C@H]4C(C)(C)[C@H](Oc5ccc(C#N)c(Cl)c5)C4(C)C)cn3)cc2)c2c(sc(C)c2C)-n2c(C)nnc21 [Compound I-103] is ___
0.5 to 1.5 µM

Fill in: GI50 of COCC[C@@H]1N=C(c2ccc(OC3CC4(CCN(c5ncc(C(=O)N[C@H]6C(C)(C)[C@H](Oc7ccc(C#N)c(Cl)c7)C6(C)C)cn5)CC4)C3)cc2)c2c(sc(C)c2C)-n2c(C)nnc21 [Compound I-566] is ___
> 3 µM

Fill in: GI50 of Cc1sc2c(c1C)C(c1ccc(C(=O)N3CCC[C@H](C(=O)c4ncc(C(=O)N[C@H]5C(C)(C)[C@H](Oc6ccc(C#N)c(Cl)c6)C5(C)C)cn4)C3)cc1)=N[C@@H](Cc1ncco1)c1nnc(C)n1-2 [Compound I-345] is ___
> 3 µM

Fill in: GI50 of Cc1sc2c(c1C)C(c1ccc(CCCOC3CCN(c4ncc(C(=O)N[C@H]5C(C)(C)[C@H](Oc6ccc(C#N)c(Cl)c6)C5(C)C)cn4)CC3)cc1)=N[C@H](Cc1ccncc1)c1nnc(C)n1-2 [Compound I-216] is ___
> 3 µM

Fill in: GI50 of Cc1sc2c(c1C)C(c1ccc(O[C@H]3COC4(C3)CN(c3ncc(C(=O)N[C@H]5C(C)(C)[C@H](Oc6ccc(C#N)c(Cl)c6)C5(C)C)cn3)C4)cc1)=N[C@@H](Cc1ncco1)c1nnc(C)n1-2 [Compound I-181] is ___
< 0.5 µM

Fill in: GI50 of Cc1sc2c(c1C)C(c1ccc(C3CC3C3CC4(CCN(c5ncc(C(=O)N[C@H]6C(C)(C)[C@H](Oc7ccc(C#N)c(Cl)c7)C6(C)C)cn5)CC4)C3)cc1)=N[C@@H](Cc1ncco1)c1nnc(C)n1-2 (stereo partly drawn) [Compound I-237] is ___
> 3 µM

Fill in: GI50 of Cc1sc2c(c1C)C(c1ccc(N(C)CC(=O)N3CCC(c4ncc(C(=O)N[C@H]5C(C)(C)[C@H](Oc6ccc(C#N)c(Cl)c6)C5(C)C)cn4)CC3)cc1)=N[C@H](Cc1ncco1)c1nnc(C)n1-2 [Compound I-356] is ___
> 3 µM

Fill in: GI50 of Cc1sc2c(c1C)C(c1ccc(N3CCN(C4CN(c5ncc(C(=O)NC6C(C)(C)C(Oc7ccc(C#N)c(Cl)c7)C6(C)C)cn5)C4)CC3)cc1)=N[C@@H](CC(=O)OC(C)(C)C)c1nnc(C)n1-2 (stereo partly drawn) [Compound I-236] is ___
0.5 to 1.5 µM

Fill in: GI50 of Cc1sc2c(c1C)C(c1ccc(OC[C@@H]3CCCN(c4ncc(C(=O)N[C@H]5C(C)(C)[C@H](Oc6ccc(C#N)c(Cl)c6)C5(C)C)cn4)C3)cc1)=N[C@@H](C)c1nnc(C)n1-2 [Compound I-352] is ___
> 3 µM

Fill in: GI50 of Cc1sc2c(c1C)C(c1ccc(N3CCC(CCc4cnc(C(=O)N[C@H]5C(C)(C)[C@H](Oc6ccc(C#N)c(Cl)c6)C5(C)C)cn4)CC3)cc1)=N[C@@H](Cc1ncco1)c1nnc(C)n1-2 [Compound I-478] is ___
0.5 to 1.5 µM

Fill in: GI50 of Cc1sc2c(c1C)C(c1ccc(C[C@H]3C[C@@]4(CCCN(c5ncc(C(=O)N[C@H]6C(C)(C)[C@H](Oc7ccc(C#N)c(Cl)c7)C6(C)C)cn5)C4)C3)cc1)=N[C@@H](Cc1ncco1)c1nnc(C)n1-2 [Compound I-156] is ___
> 3 µM

Fill in: GI50 of Cc1sc2c(c1C)C(c1ccc(N3CCC4(C3)CN(c3cnc(C(=O)N[C@H]5C(C)(C)[C@H](Oc6ccc(C#N)c(Cl)c6)C5(C)C)cn3)C4)cc1)=N[C@@H](C)c1nnc(C)n1-2 [Compound I-578] is ___
> 3 µM

Fill in: GI50 of Cc1sc2c(c1C)C(c1ccc(N[C@H]3CCN(c4ncc(C(=O)N[C@H]5C(C)(C)[C@H](Oc6ccc(C#N)c(Cl)c6)C5(C)C)cn4)C[C@@H]3F)cc1)=NC(Cc1ncco1)c1nnc(C)n1-2 (stereo partly drawn) [Compound I-630] is ___
< 0.5 µM

Fill in: GI50 of CCNC(=O)C[C@@H]1N=C(c2ccc(CCCN3CCN(c4ncc(C(=O)N[C@H]5C(C)(C)[C@H](Oc6ccc(C#N)c(Cl)c6)C5(C)C)cn4)CC3)cc2)c2c(sc(C)c2C)-n2c(C)nnc21 [Compound I-99] is ___
0.5 to 1.5 µM
